Tested on: HAP1 MTAP-intact cell line
TEST_METHOD_NOTES: SDMA in-cell western assay, HAP1 MTAP-intact
Assay type: cell-based
TEST_PARAMETERS: Homo sapiens, HAP1, SDMA in-cell western, HAP1 MTAP-intact; read-out: MTAP HAP1 intact IC50
Property: IC50; scope: individual compounds

Prompt line: Reported IC50 for COc1ncc(NC(=O)C(=O)N2C[C@H](C)CC[C@H]2c2ccc(NC(C)=O)cc2)cc1C(N)=O (single isomer, unassigned) : what is it?
Response line: > 1000 nM

Prompt line: Name the recorded IC50 for CCc1cc(NC(=O)C(=O)N2C[C@@H](C)CC[C@@H]2c2ccc3sc(C4CC5CCC(C4)N5C)nc3c2)cnc1N (stereo partly drawn) .
Response line: < 100 nM

Prompt line: Which IC50 is reported for this compound? C[C@H]1CC[C@H](c2cccc(Cl)c2)N(C(=O)C(=O)Nc2cncc(C(N)=O)c2)C1 (single isomer, unassigned)
Response line: > 1000 nM

====

TEST_SYSTEM: PRMT5 (Homo sapiens, UniProt O14744)
Construct: purchased Viva (custom protein)
Sequence (O14744 whole entry): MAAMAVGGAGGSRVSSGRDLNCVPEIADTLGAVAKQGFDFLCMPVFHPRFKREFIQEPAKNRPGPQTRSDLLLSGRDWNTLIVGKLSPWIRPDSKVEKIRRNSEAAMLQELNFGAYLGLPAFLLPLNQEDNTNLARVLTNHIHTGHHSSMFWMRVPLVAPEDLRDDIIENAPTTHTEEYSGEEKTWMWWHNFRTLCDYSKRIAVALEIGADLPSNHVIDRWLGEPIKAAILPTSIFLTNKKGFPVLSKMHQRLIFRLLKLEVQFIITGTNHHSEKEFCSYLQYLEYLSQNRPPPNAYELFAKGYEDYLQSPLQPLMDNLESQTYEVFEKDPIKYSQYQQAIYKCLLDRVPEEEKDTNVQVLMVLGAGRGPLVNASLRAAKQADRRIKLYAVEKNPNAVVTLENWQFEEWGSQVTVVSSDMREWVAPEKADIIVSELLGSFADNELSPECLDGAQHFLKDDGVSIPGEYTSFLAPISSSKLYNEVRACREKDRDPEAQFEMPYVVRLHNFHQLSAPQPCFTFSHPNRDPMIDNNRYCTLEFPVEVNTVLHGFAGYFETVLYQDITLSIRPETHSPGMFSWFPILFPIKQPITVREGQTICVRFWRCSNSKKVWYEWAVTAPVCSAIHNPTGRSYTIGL
Sequence (Q9BQA1 whole entry partner): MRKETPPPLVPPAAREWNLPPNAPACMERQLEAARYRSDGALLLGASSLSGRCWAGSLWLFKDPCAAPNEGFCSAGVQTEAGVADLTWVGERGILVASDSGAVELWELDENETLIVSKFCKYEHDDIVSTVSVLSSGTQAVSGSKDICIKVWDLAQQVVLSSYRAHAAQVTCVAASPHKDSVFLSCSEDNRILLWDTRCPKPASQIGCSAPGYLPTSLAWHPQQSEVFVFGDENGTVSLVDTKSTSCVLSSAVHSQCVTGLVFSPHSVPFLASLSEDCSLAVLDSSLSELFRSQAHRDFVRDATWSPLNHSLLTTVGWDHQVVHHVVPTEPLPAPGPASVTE
TEST_METHOD_NOTES: PRMT5 biochemical IC50 assay with no cofactor
TEST_PARAMETERS: PRMT5, no cofactor; read-out: No Cofactor/rel IC50
pIC50: −log10 of the molar value.
MEASUREMENT_LABEL: pIC50

>>> obs_value("C[C@H]1CCC[C@@H](c2ccccc2)N1C(=O)C(=O)Nc1cncc(C(N)=O)c1 (single isomer, unassigned)")
"6.30 to 7.30"

Prompt line: Which measured pIC50 value corresponds to C[C@@H]1CCC[C@H]2CN(C(=O)C(=O)Nc3cncc(C(N)=O)c3)CC[C@H]21 (racemic) ?
Response line: < 6.30

Prompt line: Suppose we examine the compound COc1ncc(NC(=O)C(=O)N2C[C@H](C)CC[C@H]2c2ccc3[nH]c(=O)ccc3c2)cc1C(N)=O (single isomer, unassigned) ; what pIC50 value has been reported?
Response line: < 6.30

Prompt line: Which pIC50 reading was recorded for the compound COc1ncc(NC(=O)C(=O)N2C[C@@H](C)CC[C@@H]2c2ccccc2)cc1C(N)=O (single isomer, unassigned) ?
Response line: < 6.30

Prompt line: Any idea what its pIC50 is? The compound is NC(=O)c1cncc(NC(=O)C(=O)N2CC[C@@H]3CCCC[C@@H]3C2)c1 (racemic)
Response line: < 6.30

Prompt line: Endpoint output: pIC50 of CCc1cc(NC(=O)C(=O)N2C[C@@H](C)CC[C@@H]2c2ccc(N3CC[C@@H]4CCN(C)C[C@@H]4C3)cc2)cnc1N (single isomer, unassigned) . Value?
Response line: > 7.30

Prompt line: Fill in the blank: the reported pIC50 of COCCc1nc2cc([C@H]3CC[C@H](C)CN3C(=O)C(=O)Nc3cnc(N)c(C4CC4)c3)ccc2s1 (single isomer, unassigned) is ____.
Response line: < 6.30

====

pIC50 overview
TEST_SYSTEM: PRMT5 (Homo sapiens, UniProt O14744)
Construct: purchased Viva (custom protein)
TEST_METHOD_NOTES: PRMT5 biochemical IC50 assay with no cofactor
TEST_PARAMETERS: PRMT5, no cofactor; read-out: No Cofactor/ rel IC50
pIC50: −log10 of the molar value.

Before answering, review these 5 worked examples.
>>> obs_value("CCc1cc(NC(=O)C(=O)N2C[C@@H](C)CC[C@@H]2c2ccc3sc(C4CCN(C)C4)nc3c2)cnc1N (stereo partly drawn)")
"> 7.30"
>>> obs_value("COc1ncc(NC(=O)C(=O)N2C[C@@H](C)[C@@H](OC)C[C@@H]2c2ccc3scnc3c2)cc1C(N)=O (single isomer, unassigned)")
"< 6.30"
>>> obs_value("Cc1cncc(NC(=O)C(=O)N2C[C@H](C)CC[C@H]2c2ccc(N)cc2)c1 (single isomer, unassigned)")
"6.30 to 7.30"
>>> obs_value("CC(=O)N1CCC(c2cccc(C3CCCCN3C(=O)C(=O)Nc3cnc(N)c(C)c3)c2)CC1 (single isomer, unassigned) [Compound 94]")
"6.30 to 7.30"
>>> obs_value("C[C@H]1CC[C@@H](c2cccnc2)N(C(=O)C(=O)Nc2cncc(C(N)=O)c2)C1 (single isomer, unassigned)")
"< 6.30"

Prompt line: What reported pIC50 corresponds to Cc1cc(NC(=O)C(=O)N2C[C@H](C)CC[C@H]2C)cnc1N (racemic) on PRMT5 (Homo sapiens, UniProt O14744)?
Response line: 6.30 to 7.30
